target: T1, recombinant human CTGF-Fc protein (Creative Biomart) (human); assay: SPR (Biacore)
T1 construct: Bought; also called human CTGF with a human IgG1 Fc Tag
T1 sequence (chain, as listed by the source limits assumed): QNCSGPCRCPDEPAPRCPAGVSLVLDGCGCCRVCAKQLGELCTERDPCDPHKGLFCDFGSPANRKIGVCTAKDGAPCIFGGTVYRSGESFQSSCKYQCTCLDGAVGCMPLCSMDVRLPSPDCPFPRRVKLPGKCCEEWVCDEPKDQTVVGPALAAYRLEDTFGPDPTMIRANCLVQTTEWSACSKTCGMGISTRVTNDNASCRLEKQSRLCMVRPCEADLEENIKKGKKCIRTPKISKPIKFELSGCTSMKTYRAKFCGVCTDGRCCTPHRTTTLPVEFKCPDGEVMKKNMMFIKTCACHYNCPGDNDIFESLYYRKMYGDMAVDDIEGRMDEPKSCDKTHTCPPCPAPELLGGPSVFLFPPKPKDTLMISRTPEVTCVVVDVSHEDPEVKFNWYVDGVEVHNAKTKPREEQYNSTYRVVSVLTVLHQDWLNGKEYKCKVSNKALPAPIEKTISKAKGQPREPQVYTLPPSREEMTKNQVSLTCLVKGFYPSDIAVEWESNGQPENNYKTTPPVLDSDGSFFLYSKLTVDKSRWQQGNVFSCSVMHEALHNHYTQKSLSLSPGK
The entries below come with measured koff values attached.

[
  {
    "binder": "lipocalin mutein of SEQ ID NO: 16 (designed binder, also called hNGAL mutein; not shown: C-terminal His-tag) QDSTSDLIPAPPLSKVPLQQNFQDNQFQGKWYVVGLAGNAILRTDKQPAKMFATIYELKEDKSYDVTSVRFEAKSCVYTIKTFVPGSQPGEFTAGNIKSAPGQTSTLVRVVSTNYNQHAMVFFKHVSQNREFFVITLYGRTKELTSELKENFIRFSKSLGLPENHIVFPVPIDQCIDG",
    "koff (s⁻¹)": "7.02e-05"
  },
  {
    "binder": "lipocalin mutein of SEQ ID NO: 6 (designed binder, also called hNGAL mutein; not shown: C-terminal His-tag) QDSTSDLIPAPPLSKVPLQQNFQDNQFQGKWYVVGRAGNNQLREDKSPPKMWATIYELKEDKSYDVTHVHFSTKKCRYIIDTFVPGSQPGEFTAGAIKSGPGLTSPLVRVVSTNYNQHAMVFFKWVTQNREWFTITLYGRTKELTSELKENFIRFSKSLGLPENHIVFPVPIDQCIDG",
    "koff (s⁻¹)": 0.000149
  },
  {
    "binder": "lipocalin mutein of SEQ ID NO: 10 (designed binder, also called hNGAL mutein; not shown: C-terminal His-tag) QDSTSDLIPAPPLSKVPLQQNFQDNQFQGKWYVVGLAGNAILREDKQPAKMFATIYELKEDKSYDVTSVRFEAKSCSYTIKTFVPGSQPGEFTAGNIKSAPGQTSTLVRVVSTNYNQHAMVFWKSVAGTRESFNIALYGRTKELTSELKENFIRFSKSLGLPENHIVFPVPIDQCIDG",
    "koff (s⁻¹)": "2.23e-06"
  },
  {
    "binder": "lipocalin mutein of SEQ ID NO: 11 (designed binder, also called hNGAL mutein; not shown: C-terminal His-tag) QDSTSDLIPAPPLSKVPLQQNFQDNQFQGKWYVVGLAGNAILREDKQPAKMFATIYELKEDKSYDVTSVRFEAKSCSYTSKTFVPGSQPGEFTAGNIKSAPGQTSTLVRVVSTNYNQHAMVFFKHVSQNRETFVITLYGRTKELTSELKENFIRFSKSLGLPENHIVFPVPIDQCIDG",
    "koff (s⁻¹)": 0.000108
  },
  {
    "binder": "lipocalin mutein of SEQ ID NO: 13 (designed binder, also called hNGAL mutein; not shown: C-terminal His-tag) QDSTSDLIPAPPLSKVPLQQNFQDNQFQGKWYVVGLAGNAILREDKYPAKMFATIYELKEDKSYDVTSVRFENKSCVYTSKTFVPGSQPGEFTTGNIKSAPGQTSTLVRVVSTNYNQHAMVFFKHVSQNREFFVITLYGRTKELTSELKENFIRFSKSLGLPENHIVFPVPIDQCIDG",
    "koff (s⁻¹)": "2.51e-06"
  },
  {
    "binder": "lipocalin mutein of SEQ ID NO: 14 (designed binder, also called hNGAL mutein; not shown: C-terminal His-tag) QDSTSDLIPAPPLSKVPLQQNFQDNQFQGKWYVVGLAGNAILREDKYPAKMFATIYELKEDKSYDVTSVRFEAKSCIYTIKTFVPGSQPGEFTRGNIKSAPGQTSTLVRVVSTNYNQHAMVFFKHVSQNREIFVITLYGRTKELTSELKENFIRFSKSLGLPENHIVFPVPIDQCIDG",
    "koff (s⁻¹)": "5.34e-05"
  }
]
